Overview of reported growth across a group of molecules:
test system: HCT-116 colon; test: NCI-60 one-dose screen, 48 h (100 = growth as untreated, 0 = no growth, -100 = all killed); conditions: 10 µM unless noted
This is part of a sample that, as a whole, favours compounds with a hit. Of some 83,000 tested, about 20% had one in any assay.
State the answer as a number, implicitly in %.

Answered examples (5):
O=C1OC(Oc2ccccc2)(c2ccccc2)c2ccccc21 (stereo unspecified)	102
BrC1CC(Br)c2c1c1c(c3c2C(Br)CC3Br)C(Br)CC1Br (stereo unspecified)	80.9
Oc1ccc(/C=N/Nc2nc3ccccc3s2)c(O)c1	25.2
CC(=O)Nc1ccc(C(=O)COc2ccc(/C=C3\CCc4ccccc4C3=O)cc2)cc1	106
COc1cc(C2CC(C3C(=O)N(C)C(=O)N(C)C3=O)=NN2C=O)cc(OC)c1OC (stereo unspecified)	102

For the molecule shown here, CCCCCCCCCCN1CCC(N2CCCCC2)CC1 , give the reported growth.
-65.2

For the molecule shown here, COc1ccc(CNC(=O)c2c(C)n([O-])c3ccccc3[n+]2=O)cc1 , give the reported growth.
97.9

For the molecule shown here, Clc1ccc2nc(CI)c(CI)nc2c1 , give the reported growth.
11

For the molecule shown here, COC(=O)CC1=C(c2ccc([N+](=O)[O-])cc2)CCC1=O , give the reported growth.
112

For the molecule shown here, O=C(N/N=C/c1cccc(O)c1)c1ccc(C(F)(F)F)nc1Nc1cccc(C(F)(F)F)c1 , give the reported growth.
-21.4

For the molecule shown here, COc1cnc2c(c1)C(=O)c1c-2n(CCCNC2=NCCS2)c(=O)c2cc(F)ccc12 , give the reported growth.
-75.3
